tested.on: T1, yeast β'-COP 1-304 D98A D117A (yeast (S. cerevisiae), UniProt P41811 1-304, D98A | D117A)
T1 construct: constructs are in the Supplemental Experimental Procedures; also called D98A D117A mutant
T1 sequence (looked up): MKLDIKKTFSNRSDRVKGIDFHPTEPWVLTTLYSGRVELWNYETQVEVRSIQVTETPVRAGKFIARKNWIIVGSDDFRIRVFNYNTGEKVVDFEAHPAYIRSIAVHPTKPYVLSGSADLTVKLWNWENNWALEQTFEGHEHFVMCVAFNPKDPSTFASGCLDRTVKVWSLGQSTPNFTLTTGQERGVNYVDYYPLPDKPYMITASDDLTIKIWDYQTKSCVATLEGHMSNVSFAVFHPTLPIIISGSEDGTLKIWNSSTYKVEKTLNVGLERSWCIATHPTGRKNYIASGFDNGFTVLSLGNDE
assay.remarks: ITC; Microcal VP-ITC, 10°C; peptide in the syringe at ten times the molar concentration of the β'-COP construct in the cell; 50 mM HEPES (pH 7.4), 100 mM NaCl
condition.set: both partners purified
quantity: Kd

Qu. Dear colleague, I am looking for the recorded Kd of the following binder: RQEIIKTKLL (also called KTKLL motif; source: peptide) [KxKxx motif peptide from wild-type yeast Emp47 (RQEIIKTKLL)]
Ans. < 300 µM
